Measured values drawn from patent US11292798B2 for this set.

Listing of entries alongside the reported ε (molecular extinction coefficient).
- assay protocol: absorption spectrum, light emission spectrum, molecular extinction coefficient and quantum efficiency in solvents
- Assay type: physicochemical
- condition label: solvent EtOH

>  <compound>
CC1(C)C2=C3C=C(CC(=O)O)C(=O)OC3CCN2c2ccccc21 (stereo not shown)

>  <ε (molecular extinction coefficient)>
15,000 Lmol^−1cm^−1

$$$$
>  <compound>
COC(=O)C1=CC2=C3N(CCC2OC1=O)c1cc2c(cc1C3(C)C)-c1ccccc1C2(C)C (stereo not shown)

>  <ε (molecular extinction coefficient)>
42,000 Lmol^−1cm^−1

$$$$
>  <compound>
CC1(C)C2=C3C=C(C(=O)O)C(=O)OC3CCN2c2cc3c(cc21)-c1ccccc1C3(C)C (stereo not shown)

>  <ε (molecular extinction coefficient)>
49,000 Lmol^−1cm^−1

$$$$
>  <compound>
CC1(C)C2=C3C=C(CC(=O)[O-])C(=O)OC3CCN2c2ccc(S(=O)(=O)[O-])cc21.[Na+].[Na+] (stereo not shown)

>  <ε (molecular extinction coefficient)>
28,000 Lmol^−1cm^−1

$$$$
